Target: T1, DGI-2 polypeptide (UniProt Q15004 1-111, limits assumed)
T1 construct: Vector-derived residues or tag of pIVEX2.3 are not described for this construct; also called KIAA0101
T1 sequence (looked up): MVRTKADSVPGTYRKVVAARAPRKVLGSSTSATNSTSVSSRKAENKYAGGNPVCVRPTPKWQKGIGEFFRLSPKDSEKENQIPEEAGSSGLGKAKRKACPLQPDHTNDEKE
Test: phage ELISA, 405 nm; DGI-2 coated
outcomeMeasure: DGI-2 (OD)
The answer should read as a number with its unit following.

The following binders have reported results that may help.
binder	DGI-2 (OD)
MAVLPAARDFGGVVQGGVSGAAAGAPVPYPDPLEPRP (not shown: phage gene III coat protein (pCANTAB5E)) [DGI-2-20F-3-C2]	1.3 OD
LQIVRPAGWKMPGQVGYYIGAAAGAPVPYPDPLEPRP (not shown: phage gene III coat protein (pCANTAB5E)) [DGI-2-20R-3-A9]	3.4 OD
RWSICRGLQYSIPGCAVEDLSDVMAAAAGAPVPYPDPLEPRP (not shown: phage gene III coat protein (pCANTAB5E)) [DGI-2-20C-4-H316]	3.8 OD
DGI-2-40F-3-A8 (not shown: phage gene III coat protein (pCANTAB5E)) peptide: GQISLAGVAVCSSERMLLAFSSRVFLPGLKVPVTTSQRGSAAAGAPVPYPDPLEPRP	0.8 OD
DGI-2-40F-4-F6 (not shown: phage gene III coat protein (pCANTAB5E)) peptide: SYRNFAMQSSLQVRRGSVVEDGTCWWEGVRCYSGAAAGAPVPYPDPLEPRP	3.2 OD

Now turn to the next binder.
Req: # input binder: DGI-2-40F-3-A1 (SEQ ID NO: 187) (not shown: phage gene III coat protein (pCANTAB5E)) peptide: QYFARGSFQFGLSHVLSAAAAFHLYVFCKRLSRGFGIKDDAAAGAPVPYPDPLEPRP ; wanted: its DGI-2 (OD)
Resp: 0.8 OD
